Values were extracted from PubChem BioAssay (NCI).

Here, each record is paired with measured log10 of TGI data.
Tested on: COLO 205 colon
experiment_description: NCI tumour cell line growth inhibition, 48 h
value_kind: log10 of TGI (log10 of the value in µM)

COc1cc(/C=C2\C(=O)N(Cc3ccc(Cl)cc3)c3ccccc32)cc(OC)c1OC
0.93
Oc1ccc(Cl)cc1C(c1cc(Cl)ccc1O)C(Cl)(Cl)Cl
0.58
CN(C)c1ccc(/C=C\c2ccnc3ccccc23)cc1
1.62
CCOC(=O)[C@@H](C)C[C@H](Cc1ccccc1)NC(=O)c1csc([C@@H](C[C@H](C(C)C)N(C)C(=O)[C@@H](NC(=O)[C@H]2CCCCN2C)C(C)(C)CC)OC(C)=O)n1
-2.52
N#CCCn1[nH]c(=O)c(Cl)c(Cl)c1=O
1.76
O=C1Oc2ccccc2C1C/C(=N\Nc1ccccc1)c1ccccc1O (stereo not given)
1.52
CCCCCCCC/C=C1\CCC(CN(C)C)C1=O (stereo not given)
1.17
